Procedure Summary: gradient 5% acetonitrile 3 min, to 50% in 2 min, to 85% in 15 min, held 3 min, 100 µL/min
Condition Notes: column: Zorbax Extend-C18 2.1 x 50 mm; eluents: water / acetonitrile, 0.1% formic acid
Assay Endpoint: RP-LC retention time (s)
Answer in s, number only, no unit symbol.

The cases that follow already have their RP-LC retention time on record.
CC(Nc1nc(N2CCCC2)nc2ccccc12)c1ccccc1 (stereo not given) ... 781
Fc1ccc(C2Cn3nnc(-c4nc(-c5ccccc5)no4)c3CO2)cc1 (stereo not given) ... 1120

Now, please, on to the next compound.
Reported RP-LC retention time for CCOC(=O)c1sc(NC(=O)c2cc(=O)c3ccccc3o2)nc1-c1ccccc1 : what is it?
1010

====

Procedure Summary: gradient 5% acetonitrile 3 min, to 50% in 2 min, to 85% in 15 min, held 3 min, 100 µL/min
Condition Notes: column: Zorbax Extend-C18 2.1 x 50 mm; eluents: water / acetonitrile, 0.1% formic acid
Lab note: compare RP-LC retention time with 900 s, writing condition met if less and condition not met if equal or more.

Solved entries (count: 3):
COc1cc(Cl)c(C)cc1-n1ccn(Cc2c(F)cccc2Cl)c(=O)c1=O ... condition met
COCc1noc([C@@H]2CC(F)(F)CN2C(=O)C2CCCC2)n1 ... condition met
CN1C(=O)c2ccccc2Oc2ccc(C(=O)NCc3ccccc3Cl)cc21 ... condition not met

Does Cn1cc(CN2CCC(C(=O)NC3CCCCCC3)CC2)c2cc(Cl)ccc21 have RP-LC retention time strictly under 900 s?
condition met

Repeat for the following molecule: O=C(NC1CCCCC1)C1CCCN(C(=O)c2ccc(Cl)cc2)C1 (centres undefined)
condition met

Likewise for CC(=O)c1ccc(OC(=O)c2ccc3c(c2)C(=O)N(c2ccccc2)C3=O)cc1 ?
condition met

// same read-out, input: O=C(NCCn1nnc2cc(C(=O)N3CCCC3)ccc21)Nc1ccc(F)c(Cl)c1
condition met

And the next one, O=S(=O)(c1ccccc1F)N1CCC(c2noc(-c3cccc(F)c3)n2)CC1 ?
condition not met

====

Procedure Summary: gradient 5% acetonitrile 3 min, to 50% in 2 min, to 85% in 15 min, held 3 min, 100 µL/min
Condition Notes: column: Zorbax Extend-C18 2.1 x 50 mm; eluents: water / acetonitrile, 0.1% formic acid
Assay Endpoint: RP-LC retention time (s)
Entry rule: numbers only, all in s.

Worked set:
COc1ccc(NC(=O)N2CCC3(CC2)NC(=O)c2ccccc2N3C)cc1 ... 700
COc1ccccc1-c1noc(C2CCCN2C(=O)Nc2cc(C)cc(C)c2)n1 (stereo not given) ... 957

Field request: RP-LC retention time | item: COc1ccc(CCNC(=O)C2CCN(S(=O)(=O)c3cn(C(C)C)cn3)CC2)cc1OC
689

Repeat with CC(Cc1ccco1)NC(=O)Cn1c(=O)c(=O)n(C)c2ncccc21 (stereo not given)
688

Now give it for Cc1nn2c(N3CCN(c4ccccn4)CC3)cc(C(C)C)nc2c1-c1ccccc1 too.
823

Also check Cc1cc(C)cc(NC(=O)N2CCC(N3CCN(Cc4ccc(F)cc4)C(=O)C3=O)CC2)c1
788

Would you kindly repeat that for COc1ccc(C2(C(=O)N3C[C@H]4C[C@H](C3)[C@H]3CCCC(=O)N3C4)CCCCC2)cc1 ?
826

Item: Cc1ccc(C(=O)Nc2nc(-c3ccc(Br)cc3)cs2)cc1[N+](=O)[O-]
1210

Here is the next compound: Cc1ccc2c(c1)N(S(C)(=O)=O)CCC(C(=O)Nc1ccccc1Cl)O2 (stereo not given)
1030

Entry to check: COC(=O)c1ccc2nc(NC(=O)c3cc(C)oc3C)sc2c1
947

Then this compound: O=C(Nc1c(-c2ccc(F)cc2)nc2ccccn12)C1CC1
578

What do you get for CC1CCCCN1CCCNC(=O)CCCn1c(=O)c2cccn2c2ccccc21 (stereo not given) ?
627

// next record OCC1OC(n2cnc3c(SCc4ccccc4)ncnc32)C(O)C1O (stereo not given)
663

// same read-out, input: O=C1COc2ccccc2N1Cc1nc(-c2cccc(Br)c2)no1
1120

Request: CCc1nnc2ccc(-c3noc(Cc4cccc(Cl)c4)n3)cn12
896

Follow-up entry: CCCn1cc(C2=CCN(S(=O)(=O)Cc3ccccc3)CC2)c2cccnc21
1070
